Measured pKd, listed per entry.
TARGET: T1, human ROR1 Frizzled domain (hROR1-Fz) (human, UniProt Q01973 165-305)
T1 construct: Acro Biosystems, made in HEK293
T1 sequence (Q01973 other isoform, or with tags, fused parts or gaps): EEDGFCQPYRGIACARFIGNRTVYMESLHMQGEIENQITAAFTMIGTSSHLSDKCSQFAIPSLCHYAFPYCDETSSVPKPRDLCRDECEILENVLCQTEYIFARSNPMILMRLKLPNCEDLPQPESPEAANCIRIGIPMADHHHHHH
EXPERIMENT NOTES: SPR Biacore, IgG on anti-Fc, ROR1-Fz analyte
pKd: −log10 of the molar value.
PROPERTY LABEL: pKd

- SRP2196-B10 (antibody, V domains shown, His/FLAG-tagged IgG1; also called Antibody 167) VH: EVQLVESGGGLVQPGGSLRLSCAASGFNITGYYIHWVRQAPGKGLEWVGSITPLSGATSKADSVKGRFTISADTSKNTAYLQMNSLRAEDTAVYYCARDSRRYIRSWDYWGQGTLVTVSS VL: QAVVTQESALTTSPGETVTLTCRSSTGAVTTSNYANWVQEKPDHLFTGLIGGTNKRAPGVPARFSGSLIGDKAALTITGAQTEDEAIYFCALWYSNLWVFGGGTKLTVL: 8.58
- SRP2196-B01 (antibody, V domains shown, His/FLAG-tagged IgG1) VH: EVQLVESGGGLVQPGGSLRLSCAASGFNITGYYIHWVRQAPGKGLEWVGQISPNSGYTYYADSVKGRFTISADTSKNTTYLQMNSLRAEDTAVYYCARDSRRYVRSWDYWGQGTLVTVSS VL: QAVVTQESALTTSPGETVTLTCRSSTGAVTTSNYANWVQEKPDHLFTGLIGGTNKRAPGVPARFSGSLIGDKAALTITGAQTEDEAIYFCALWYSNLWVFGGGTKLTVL: 8.51
